System: Staphylococcus aureus
PROTOCOL_TEXT: Antibacterial activity agianst methicillin-sensitive Staphylococcus aureus
Format: functional
For each entry below, report its MIC value.
Unit µg/mL implied. Number only.

[Q] Request the reported MIC associated with CC(=O)NC[C@H]1CN(c2ccc(N3CCC(Nc4ccc(C(C)C)cc4)CC3)c(F)c2)C(=O)O1
[A] 2

[Q] Report MIC for CC(=O)NC[C@H]1CN(c2ccc(N3CCC(Nc4ccccc4OC(F)(F)F)CC3)c(F)c2)C(=O)O1 please.
[A] 2

[Q] Bench note: what MIC did CC(=O)NC[C@H]1CN(c2ccc(N3CCOCC3)c(F)c2)C(=O)O1 show?
[A] 1

[Q] // MIC lookup, key: CC(=O)NC[C@H]1CN(c2ccc(N3CCC(Nc4cccc(OC(F)(F)F)c4)CC3)c(F)c2)C(=O)O1
[A] 2

[Q] Query (compound): CC(=O)NC[C@H]1CN(c2ccc(N3CCN(Cc4ccc([N+](=O)[O-])o4)CC3)c(F)c2)C(=O)O1 ; field requested: MIC
[A] 0.5

[Q] For the compound shown here, CC(=O)NC[C@H]1CN(c2ccc(N3CCC(N(C)c4ccc(Br)cc4)CC3)c(F)c2)C(=O)O1 , give the reported MIC.
[A] 2

[Q] Would you kindly share the measured MIC for CC(=O)NC[C@H]1CN(c2ccc(N3CCC(Nc4ccc(F)cc4)CC3)c(F)c2)C(=O)O1 ?
[A] 1

[Q] Quick check: MIC of CC(=O)NC[C@H]1CN(c2ccc(N3CCC(Nc4ccc(Br)cc4)CC3)c(F)c2)C(=O)O1 ?
[A] 1

[Q] Fill in: MIC of CC(=O)NC[C@H]1CN(c2ccc(N3CCC(Nc4ccc(OC(F)(F)F)cc4)CC3)c(F)c2)C(=O)O1 is ___
[A] 1

[Q] Fill blank: measured MIC of the compound CC(=O)NC[C@H]1CN(c2ccc(N3CCC(Nc4cccc(Br)c4)CC3)c(F)c2)C(=O)O1 is ____.
[A] 2

[Q] Could you tell me which MIC is on file for CC(=O)NC[C@H]1CN(c2ccc(N3CCC(Nc4ccc(Br)cc4F)CC3)c(F)c2)C(=O)O1 ?
[A] 2

[Q] If you can, please state the reported MIC value of CC(=O)NC[C@H]1CN(c2ccc(N3CCC(Nc4ccccc4)CC3)c(F)c2)C(=O)O1 .
[A] 1

[Q] I am curious: what MIC value has been reported for CC(=O)NC[C@H]1CN(c2ccc(N3CCC(NCc4ccc(F)cc4)CC3)c(F)c2)C(=O)O1 ?
[A] 1

[Q] // returns reported MIC for input CC(=O)NC[C@H]1CN(c2ccc(N3CCC(Nc4ccc(Cl)cc4)CC3)c(F)c2)C(=O)O1
[A] 2

[Q] Requested field: MIC. Item: CC(=O)NC[C@H]1CN(c2ccc(N3CCC(NCc4ccccc4)CC3)c(F)c2)C(=O)O1
[A] 1

[Q] Name the recorded MIC for CC(=O)NC[C@H]1CN(c2ccc(N3CCC(Nc4ccccc4Br)CC3)c(F)c2)C(=O)O1 .
[A] 2
